Reference for the values: patent US9409952B2

- assay.explanation: PAMPA (parallel artificial membrane permeability assay)
- Assay type: in vitro ADME
- experimental.context: PAMPA, pH 6.5
Starred links: 1 amine or outer side, 2 acyl side, 3 side chain; linkers in the order of their positions; H or OH if unused. Positions of bridges follow the written chain, without caps; N, C: chain ends. Non-standard residues stand in square brackets, D forms with d. Residues, ends and D or L forms follow the SMILES beside them. ξ: configuration not given here. *: point of attachment. NMeF = CN[C@@H](Cc1ccccc1)C(=O)O; NMeI = CC[C@H](C)[C@H](NC)C(=O)O; NMeβAla = CN(CCC(=O)[*:2])[*:1]; Aoc(2) = CCCCCC[C@H](N)C(=O)O; NMeL = CN[C@@H](CC(C)C)C(=O)O; NMeV = CN[C@H](C(=O)O)C(C)C; NMeA = CN[C@@H](C)C(=O)O; Piperidide = C1CCN(*)CC1; dNMeA = CN[C@H](C)C(=O)O; β3hA = C[C@H](N)CC(=O)O; ξL = CC(C)CC(N)C(=O)O; NPrGly = CCCNCC(=O)O; Sar = CNCC(=O)O; tBu = CC(C)(C)*
Reported Papp at 18 hours, 50 µM values follow for various compounds
Reply with just the number (in ×10⁻⁶ cm/s).

# annotated cases, reported Papp at 18 hours, 50 µM shown
[
  {
    "compound": "CCCN1CC(=O)N(C)[C@@H](Cc2ccccc2)C(=O)N(C)[C@@H](Cc2ccccc2)C(=O)N(C)[C@@H](CC(C)C)C(=O)N2CCC[C@H]2C(=O)N(C)[C@@H](CC(C)C)C(=O)N[C@@H](C)C(=O)N(C)[C@@H](C(C)C)C(=O)N[C@H](C(=O)N2CCCCC2)CC(=O)N(C)[C@@H](C)C(=O)N[C@@H]([C@@H](C)O)C1=O [DP-541] ([NMeA]T[NPrGly][NMeF][NMeF][NMeL]P[NMeL]A[NMeV]D-Piperidide; lactam N-11)",
    "unit.symbol": "×10⁻⁶ cm/s",
    "measured.result": 23
  },
  {
    "compound": "CC[C@H](C)[C@H]1C(=O)N(C)[C@@H](CC(C)C)C(=O)N(C)[C@@H](Cc2ccccc2)C(=O)N[C@@H]([C@@H](C)O)C(=O)N(C)[C@@H](Cc2ccccc2)C(=O)N(C)[C@@H](CC(C)C)C(=O)N(C)[C@@H](C)C(=O)N[C@H](C(=O)N2CCCCC2)CC(=O)N[C@H](C)C(=O)N[C@@H](C)C(=O)N(C)[C@@H](CC(C)C)C(=O)N1C [DP-99] ([dA]A[NMeL][NMeI][NMeL][NMeF]T[NMeF][NMeL][NMeA]D-Piperidide; lactam N-11)",
    "unit.symbol": "×10⁻⁶ cm/s",
    "measured.result": 56
  }
]

[ask] Item CC[C@H](C)[C@@H]1NC(=O)[C@H](CC(C)C)N(C)C(=O)[C@H](Cc2ccccc2)N(C)C(=O)[C@H]([C@@H](C)O)NC(=O)[C@H](CC(C)C)N(C)C(=O)[C@H](CC(C)C)N(C)C(=O)[C@H](C)N(C)C(=O)C[C@@H](C(=O)N2CCCCC2)NC(=O)[C@H](CC(C)C)NC(=O)[C@H](Cc2ccccc2)N(C)C(=O)[C@H](C)N(C)C1=O [DP-154] ([NMeA][NMeL][NMeL]T[NMeF][NMeL]I[NMeA][NMeF]LD-Piperidide; lactam N-11) : provide Papp at 18 hours, 50 µM
[reply] 9.3

[ask] For CC(C)C[C@H]1C(=O)N[C@H](C(=O)N(C)[C@@H](Cc2ccccc2)C(=O)N[C@@H](C)C(=O)N2CCCCC2)CC(=O)N(C)[C@@H](C)C(=O)N[C@@H](Cc2ccccc2)C(=O)N(C)[C@@H](C(C)C)C(=O)N(C)[C@@H](C)C(=O)N[C@@H]([C@@H](C)O)C(=O)N(C)[C@@H](C)C(=O)N(C)[C@@H](CC(C)C)C(=O)N[C@@H](C)C(=O)N1C [DP-296] ([NMeA]F[NMeV][NMeA]T[NMeA][NMeL]A[NMeL]D[NMeF]A-Piperidide; lactam N-10) , write its Papp at 18 hours, 50 µM.
[reply] 15

[ask] Specify measured Papp at 18 hours, 50 µM for CC[C@H](C)[C@H]1C(=O)N(C)[C@@H](Cc2ccccc2)C(=O)N[C@H](C(=O)N2CCCCC2)CC(=O)N(C)CCC(=O)NC(CC(C)C)C(=O)N(C)[C@@H](Cc2ccccc2)C(=O)N(C)[C@@H](CC(C)C)C(=O)N(C)[C@@H](C(C)C)C(=O)N[C@@H](C)C(=O)N(C)[C@@H](C)C(=O)N[C@@H]([C@@H](C)O)C(=O)N(C)CC(=O)N1C (stereo partly drawn) [DP-61] ([NMeβAla][ξL][NMeF][NMeL][NMeV]A[NMeA]T[Sar][NMeI][NMeF]D-Piperidide; lactam N-12) .
[reply] 19

[ask] Specify reported Papp at 18 hours, 50 µM for the compound shown: CC[C@H](C)[C@H]1C(=O)N[C@@H](Cc2ccccc2)C(=O)N(C)[C@@H](CC(C)C)C(=O)N[C@@H](CC(C)C)C(=O)N[C@H](C(=O)N2CCCCC2)CC(=O)N(C)[C@H](C)C(=O)N[C@@H](CC(C)C)C(=O)N(C)[C@@H](C)C(=O)N2CCC[C@H]2C(=O)N[C@@H]([C@@H](C)O)C(=O)N(C)[C@@H](Cc2ccccc2)C(=O)NCC(=O)N1C [DP-224] ([dNMeA]L[NMeA]PT[NMeF]G[NMeI]F[NMeL]LD-Piperidide; lactam N-12)
[reply] 18

[ask] For CC[C@H](C)[C@H](NC(=O)[C@H](CC(C)C)NC(=O)[C@@H]1CC(=O)N[C@@H](C)C(=O)N[C@@H](CC(C)C)C(=O)N[C@@H](Cc2ccccc2)C(=O)N[C@@H](CC(C)C)C(=O)N[C@@H]([C@@H](C)O)C(=O)N2CCC[C@H]2C(=O)N(C)CC(=O)N[C@@H](Cc2ccccc2)C(=O)N[C@@H](C(C)C)C(=O)N(C)[C@@H](C)C(=O)N1)C(=O)N1CCCCC1 [DP-41] (ALFLTP[Sar]FV[NMeA]DLI-Piperidide; lactam N-11) , write its Papp at 18 hours, 50 µM.
[reply] 11

[ask] Read the entry CC(C)C[C@H]1C(=O)NCC(=O)N[C@H](C(=O)N(C)[C@@H](Cc2ccccc2)C(=O)N[C@@H](C)C(=O)N2CCCCC2)CC(=O)N[C@H](C)C(=O)N[C@@H]([C@@H](C)O)C(=O)N(C)[C@@H](C)C(=O)N(C)[C@@H](Cc2ccccc2)C(=O)N[C@@H](C(C)C)C(=O)N(C)[C@@H](Cc2ccccc2)C(=O)N1C [DP-307] ([dA]T[NMeA][NMeF]V[NMeF][NMeL]GD[NMeF]A-Piperidide; lactam N-9) and write its reported Papp at 18 hours, 50 µM.
[reply] 22

[ask] For CCCCCC[C@@H]1NC(=O)[C@H](Cc2ccccc2)N(C)C(=O)[C@H](C)N(C)C(=O)C[C@H](C)NC(=O)[C@H](C(C)C)N(C)C(=O)[C@H](Cc2ccccc2)N(C)C(=O)[C@H](COC(C)(C)C)NC(=O)[C@H](C)N(C)C(=O)CN(C)C(=O)[C@H]([C@@H](C)O)NC(=O)[C@H](CC(C)C)N(C)C1=O [DP-775] (cyclo([Aoc(2)][NMeL]T[Sar][NMeA]S(tBu)[NMeF][NMeV][β3hA][NMeA][NMeF])) , write its Papp at 18 hours, 50 µM.
[reply] 37
